system: HIV-1 Env of ZM233.6 (HIV-1)
method-description: cell-based or functional assay
// reported neutralization IC50 for each item listed

Data request, read-out neutralization IC50, for CAP256-VRC26.01 (antibody, V domains shown) VH: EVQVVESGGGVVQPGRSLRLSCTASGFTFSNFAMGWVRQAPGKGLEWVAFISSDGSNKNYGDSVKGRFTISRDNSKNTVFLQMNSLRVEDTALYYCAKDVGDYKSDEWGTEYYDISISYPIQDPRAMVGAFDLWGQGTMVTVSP VL: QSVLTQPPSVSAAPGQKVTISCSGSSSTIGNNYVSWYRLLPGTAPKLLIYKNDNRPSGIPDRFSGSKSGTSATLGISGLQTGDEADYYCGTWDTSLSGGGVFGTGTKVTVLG
> 50000 ng/mL

Here is the next binder: CAP256-VRC26.09 (antibody, V domains shown) VH: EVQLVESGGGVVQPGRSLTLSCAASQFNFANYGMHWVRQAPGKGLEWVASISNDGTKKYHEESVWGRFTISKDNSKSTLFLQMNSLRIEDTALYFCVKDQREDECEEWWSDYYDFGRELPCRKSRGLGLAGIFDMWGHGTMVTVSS VL: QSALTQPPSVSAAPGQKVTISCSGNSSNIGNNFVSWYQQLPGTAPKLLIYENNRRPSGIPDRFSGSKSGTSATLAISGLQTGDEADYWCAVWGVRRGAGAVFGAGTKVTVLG
1 ng/mL

Here is the next binder: CAP256-VRC26.05 (antibody, V domains shown) VH: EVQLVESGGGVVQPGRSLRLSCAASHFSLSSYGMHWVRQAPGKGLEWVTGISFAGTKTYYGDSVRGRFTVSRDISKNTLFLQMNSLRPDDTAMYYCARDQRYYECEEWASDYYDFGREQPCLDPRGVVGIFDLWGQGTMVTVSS VL: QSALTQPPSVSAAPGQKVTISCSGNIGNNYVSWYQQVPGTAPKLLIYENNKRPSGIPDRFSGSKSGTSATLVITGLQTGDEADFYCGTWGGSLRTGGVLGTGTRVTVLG
3 ng/mL

Here is the next binder: CAP256-VRC26.02 (antibody, V domains shown) VH: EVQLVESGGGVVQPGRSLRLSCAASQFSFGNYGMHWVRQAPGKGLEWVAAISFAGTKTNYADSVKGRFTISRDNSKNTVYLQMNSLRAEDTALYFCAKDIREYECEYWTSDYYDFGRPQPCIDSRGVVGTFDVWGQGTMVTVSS VL: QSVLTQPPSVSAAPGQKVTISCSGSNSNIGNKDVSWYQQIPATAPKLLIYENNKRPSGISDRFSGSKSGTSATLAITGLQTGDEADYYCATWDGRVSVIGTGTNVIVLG
701 ng/mL

Data provenance is patent US20200199204A1.
